Please respond with reported Percent Effect for every item in the list.
- Organism: Homo sapiens
- METHOD: To identify inhibition of the IFN signalling (Jak-Stat) pathway via expression of an eGFP reporter gene under the control of an IFN-stimulated response element (ISRE) containing MxA promoter.
- Type: functional
- Parameters: scale not given: direction of the effect not stated beside the values
- RUN PARAMETERS: 30 µM
One number for each entry, in %.

>>> test_result("Cc1cccnc1CNc1cc(N2CCCC2CO)ncn1 (stereo not drawn)")
11.7
>>> test_result("CCn1ccnc1CN1CCN(Cc2ccccn2)CC1C (stereo not drawn)")
12.7

Q: Any idea what Percent Effect was measured for CN1CCN(C(=O)c2cncc(CC3CCCN(C)C3)c2)CC1 (stereo not drawn) ?
Ans: 15.9

====

Hi there, I'd appreciate the recorded Percent Effect for every entry that follows.
- MEASUREMENT TARGET: Ubiquitin-activating enzyme e1, putative (Leishmania donovani (strain BPK282A1))
- METHOD: Leishmania donovani Ubiquitin Activating Enzyme (LdE1)
- Assay type: functional
- Design: scale not given: direction of the effect not stated beside the values
- RUN PARAMETERS: 30 µM
Entries with a potency or affinity are not part of this list.
Give bare numbers, in %.

>>> test_result("CC(NC(=O)NCC1(c2ccc(F)cc2)CCC1)c1nncn1C (centres undefined)")
15.8
>>> test_result("Cc1cnn(CC(C)NCc2ccc(S(C)(=O)=O)cc2)c1 (centres undefined)")
13.9
>>> test_result("Nc1nc(C2CCN(C(=O)c3cscn3)CC2)cs1")
10.7

Now consider the entry below.
Q: Can you look up Percent Effect on Ubiquitin-activating enzyme e1, putative (Leishmania donovani (strain BPK282A1)) for `Cc1ccc(NC2CCN(C(=O)CCc3ccco3)CC2)nn1` ?
Ans: 2.7

====

For each record, write down the corresponding Percent Effect.
- MEASUREMENT TARGET: Ubiquitin-activating enzyme e1, putative (Leishmania donovani (strain BPK282A1)) (UniProt E9BSI1)
- Sequence (E9BSI1 as listed by the source): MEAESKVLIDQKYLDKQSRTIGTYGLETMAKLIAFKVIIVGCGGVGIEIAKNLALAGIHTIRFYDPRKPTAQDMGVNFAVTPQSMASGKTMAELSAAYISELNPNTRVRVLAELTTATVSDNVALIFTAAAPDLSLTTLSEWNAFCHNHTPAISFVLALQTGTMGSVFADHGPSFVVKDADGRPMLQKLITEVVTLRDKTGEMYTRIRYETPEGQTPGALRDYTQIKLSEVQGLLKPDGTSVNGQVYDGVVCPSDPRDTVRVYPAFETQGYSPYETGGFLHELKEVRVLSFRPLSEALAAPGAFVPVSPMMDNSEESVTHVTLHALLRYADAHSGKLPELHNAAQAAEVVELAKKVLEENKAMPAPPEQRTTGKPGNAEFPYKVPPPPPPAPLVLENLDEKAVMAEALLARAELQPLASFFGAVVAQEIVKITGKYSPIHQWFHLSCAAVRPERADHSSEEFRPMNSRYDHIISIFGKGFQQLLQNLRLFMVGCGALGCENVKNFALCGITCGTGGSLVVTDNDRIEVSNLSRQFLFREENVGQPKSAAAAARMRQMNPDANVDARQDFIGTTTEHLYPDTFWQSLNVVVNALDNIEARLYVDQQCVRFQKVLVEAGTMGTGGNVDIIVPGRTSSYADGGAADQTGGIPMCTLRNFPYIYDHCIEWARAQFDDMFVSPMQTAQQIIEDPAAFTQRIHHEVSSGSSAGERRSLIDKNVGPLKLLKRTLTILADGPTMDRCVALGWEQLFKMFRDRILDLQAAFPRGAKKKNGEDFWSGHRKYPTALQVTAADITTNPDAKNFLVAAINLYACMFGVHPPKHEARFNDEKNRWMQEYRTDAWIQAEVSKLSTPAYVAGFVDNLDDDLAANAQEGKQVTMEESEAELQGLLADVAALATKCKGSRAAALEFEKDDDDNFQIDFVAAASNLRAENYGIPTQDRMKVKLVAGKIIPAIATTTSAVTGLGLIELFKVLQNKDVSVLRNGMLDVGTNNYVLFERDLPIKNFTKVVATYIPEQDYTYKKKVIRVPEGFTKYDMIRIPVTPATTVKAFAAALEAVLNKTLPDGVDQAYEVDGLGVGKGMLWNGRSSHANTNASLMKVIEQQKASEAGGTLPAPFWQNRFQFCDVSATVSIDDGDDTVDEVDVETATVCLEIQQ
- METHOD: Leishmania donovani Ubiquitin Activating Enzyme (LdE1)
- Assay type: functional
- Design: scale not given: direction of the effect not stated beside the values
- RUN PARAMETERS: 30 µM
Results with a measured potency or affinity are listed apart.
One number for each entry, in %.

>>> test_result("CC(NC(=O)NCCCNS(C)(=O)=O)c1ccncc1 (configuration not stated)")
6.33

The following compounds each have a reported value; give each one's Percent Effect.
1. CC(C)c1noc(C(C)N2CCN(Cc3ccco3)CC2)n1 (configuration not stated)
2. CN(CC(=O)N1CCCC1Cn1cccn1)C1CC1 (configuration not stated)
3. Cc1ccc(Cc2cnc(NC(=O)C3CNC(=O)N3)s2)cc1F (configuration not stated)

Ans:
1: -7.89; 2: 10.1; 3: 8.86

I need Percent Effect for every entry listed below, if you could help.
1. Cc1nc(C)n(CC2CCCCN2CC(=O)Nc2nncs2)n1 (configuration not stated)
2. CNc1nc(CNC(=O)Nc2ccccc2SC)cs1
3. NCCn1nc(C2CCN(C(=O)CC3CCCCC3)C2)c2nccnc21 (configuration not stated)

Ans:
2.67
-2.63
-10.7

====

- MEASUREMENT TARGET: Arginase-2, mitochondrial (Homo sapiens)
- Sequence (whole entry): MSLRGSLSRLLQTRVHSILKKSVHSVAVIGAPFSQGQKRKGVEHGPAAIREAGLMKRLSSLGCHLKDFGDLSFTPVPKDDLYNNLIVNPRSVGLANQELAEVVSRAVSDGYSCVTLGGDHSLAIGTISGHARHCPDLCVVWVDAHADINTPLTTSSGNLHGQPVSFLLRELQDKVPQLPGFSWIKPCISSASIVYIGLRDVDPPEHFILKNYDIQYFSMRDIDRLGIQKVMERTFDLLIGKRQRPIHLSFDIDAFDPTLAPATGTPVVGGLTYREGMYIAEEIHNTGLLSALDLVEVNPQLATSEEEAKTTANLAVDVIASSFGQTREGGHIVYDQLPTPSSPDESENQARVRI
- METHOD: in vitro enzyme assay to detect the production of urea directly proportional to the activity of Arginase II; also: in the data most compounds retested in dose-response had high values
- Type: functional
- Parameters: scale not given: direction of the effect not stated beside the values
- RUN PARAMETERS: 33.3 µM
RECORDED METRIC: Percent Effect (%)
Give bare numbers, in %.

Answered examples (3):
>>> test_result("CN(Cc1ccc(Cl)s1)C(=O)NCc1nnc2n1CCC2")
-3.96
>>> test_result("Cc1nn(C)cc1C(=O)N1C[C@H]2CC[C@@H]1CN(S(=O)(=O)N(C)C)C2")
2.6
>>> test_result("Cc1ccccc1CSc1nc(N)cc(N2CC[C@@H](O)C2)n1")
-3.23

Field: Percent Effect. Fill in for each record below.
1. CN(C)CCNC(=O)c1cc(-c2cnc(N3CCCC3)nc2)cn1C
2. CC(C(=O)NCc1ccnc(Oc2ccc(F)cc2)c1)n1cncn1 (configuration not stated)
3. CC(C)Cc1noc(CN2CCN(C(=O)c3cccc(F)c3)CC2)n1
4. Cc1cc(C)n(C2CCCN(C(=O)CCNS(C)(=O)=O)C2)n1 (configuration not stated)
5. CC(C)c1nc(CN2CCCCC2)cs1

Ans:
1: -1.17; 2: 4.29; 3: 0; 4: 7.53; 5: -0.632
